measured-on: TNFα (tumor necrosis factor α) (UniProt P01375 77-233)
Sequence (P01375 77-233 limits assumed): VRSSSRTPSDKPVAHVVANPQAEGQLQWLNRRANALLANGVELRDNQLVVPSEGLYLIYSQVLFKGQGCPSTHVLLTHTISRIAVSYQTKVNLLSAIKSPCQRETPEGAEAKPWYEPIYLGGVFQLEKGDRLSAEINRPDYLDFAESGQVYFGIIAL
experimental-details: BioVeris ECL competition assay with a labeled competitor; legend: + = IC50 about 50 - 250 µM
value-kind: IC50

* BBIt-TNF-T3 (BBIt-TNFα-T3-A13I-S25R-M27A-L29P-S31A-F50K-V52T, peptide DMIMVSI) (designed binder, the listing entry must be checked) DPDDESSKPCCDQCICTKSNPPQCRCRDARPNACHSACKSCACDMIMVSICKCTDITDFCYEPCKPSE | 50 to 250 µM
* BBIt-TNF-T2 (BBIt-TNFα-T2-A13I-S25R-M27A-L29P-S31A-F50K-V52T, peptide APEPILA) (designed binder) DPDDESSKPCCDQCICTKSNPPQCRCRDARPNACHSACKSCACAPEPILACKCTDITDFCYEPCKPSE | 50 to 250 µM
